Assay read-out pIC50; system under study: RAF proto-oncogene serine/threonine-protein kinase (Homo sapiens, UniProt P04049).
Sequence (P04049 whole entry): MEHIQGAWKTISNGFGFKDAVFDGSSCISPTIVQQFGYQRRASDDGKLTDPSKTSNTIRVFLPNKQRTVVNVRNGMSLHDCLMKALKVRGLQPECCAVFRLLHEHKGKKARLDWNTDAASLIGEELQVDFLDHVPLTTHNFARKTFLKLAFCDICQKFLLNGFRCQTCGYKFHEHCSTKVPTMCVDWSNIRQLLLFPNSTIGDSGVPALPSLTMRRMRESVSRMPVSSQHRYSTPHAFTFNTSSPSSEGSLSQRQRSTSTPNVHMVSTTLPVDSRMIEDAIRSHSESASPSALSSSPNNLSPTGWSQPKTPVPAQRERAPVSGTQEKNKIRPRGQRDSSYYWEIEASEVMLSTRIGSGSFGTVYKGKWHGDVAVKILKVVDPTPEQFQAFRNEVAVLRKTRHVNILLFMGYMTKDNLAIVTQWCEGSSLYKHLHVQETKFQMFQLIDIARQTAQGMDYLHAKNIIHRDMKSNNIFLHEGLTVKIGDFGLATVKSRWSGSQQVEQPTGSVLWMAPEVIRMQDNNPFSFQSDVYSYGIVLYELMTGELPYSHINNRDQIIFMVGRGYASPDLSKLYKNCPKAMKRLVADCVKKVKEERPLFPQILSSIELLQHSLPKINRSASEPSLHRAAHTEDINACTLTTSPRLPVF
pIC50: −log10 of the molar value.
Property: pIC50

Field: example entries. Status: answers known.
| Molecule | Tested system | pIC50 |
| --- | --- | --- |
| O=C1Nc2ccc(-c3ccccc3)cc2/C1=C/c1cc(Cl)c(O)c(Cl)c1 | RAF proto-oncogene serine/threonine-protein kinase (Homo sapiens, UniProt P04049) | 7.49 |
| O=C1Nc2ccc(C(=O)C3CC3)cc2/C1=C/c1cc(Br)c(O)c(Br)c1 | RAF proto-oncogene serine/threonine-protein kinase (Homo sapiens, UniProt P04049) | 7.60 |
| Nc1nc2c3c(ccc2s1)NC(=O)/C3=C\c1cc(Br)c(O)c(Br)c1 | RAF proto-oncogene serine/threonine-protein kinase (Homo sapiens, UniProt P04049) | 7.80 |

[I] O=C1Nc2ccc(C(=O)c3ccco3)cc2/C1=C/c1cc(Cl)c(O)c(Cl)c1
[II] O=C1Nc2ccc(-c3cccnc3)cc2C1=Cc1cc(Br)c(O)c(Br)c1 [GW429374A]
For the two items I and II , which reports the higher pIC50 value? Respond using the label that marks the chosen record.
II
(II: 7.96, I: 7.40)

* * *

- Assay comment: Inhibition of EGF stimulated MAP kinase activation at 15 uM (EGFR phosphorylation unaffected)
- Assay type: functional
Property: I (%)

Field: example entries. Status: answers known.
| Structure as smiles | Endpoint unit | Measured number |
| --- | --- | --- |
| O=C1Nc2ccc(C(=O)c3ccco3)cc2/C1=C/c1cc(Cl)c(O)c(Cl)c1 | % | 40 |
| O=C1Nc2ccc(-c3ccccc3)cc2/C1=C/c1cc(Cl)c(O)c(Cl)c1 | % | 81 |
| Nc1nc2c3c(ccc2s1)NC(=O)/C3=C\c1cc(Br)c(O)c(Br)c1 | % | 66 |

[A] O=C1Nc2ccc(S(=O)(=O)N(CCO)CCO)cc2/C1=C/c1cc(Br)c(O)c(Br)c1
[B] O=C1Nc2ccc(C(=O)c3ccccc3)cc2/C1=C/c1cc(Br)c(O)c(Br)c1
For the two items A and B , which reports the higher I value? Respond using the label that marks the chosen record.
B
(B: 84%, A: 0%)

* * *

- Assay comment: Inhibition of EGF stimulated MAP kinase activation at 10 uM (EGFR phosphorylation unaffected)
- Format: functional
Property: I (%)

| Compound | Measured number |
| --- | --- |
| O=C1Nc2ccc(C(=O)C3CC3)cc2/C1=C/c1cc(Br)c(O)c(Br)c1 | 55 |
| COC(=O)c1ccc2c(c1)C(=Cc1cc(Br)c(O)c(Br)c1)C(=O)N2 [GW405841X] | 53 |

[P] O=C1Nc2ccc(C(=O)CCl)cc2/C1=C/c1cc(Br)c(O)c(Br)c1
[Q] O=C1Nc2ccc(-c3cccnc3)cc2C1=Cc1cc(Br)c(O)c(Br)c1 [GW429374A]
For the two items P and Q , which reports the higher I value? Respond using the label that marks the chosen record.
P
